Origin of values: patent US10280174B2

Below is a list of entries, each paired with its recorded Weight change ratio, Desorption value.
Assay notes: Moisture absorption/desorption test
Format: physicochemical
Condition notes: relative humidity 80%, 25° C.
Give your result in % as a bare value.

C=CC(=O)N1CCC[C@@H](n2nc(C(=O)Nc3nc4ccccc4o3)c3c(N)ncnc32)C1.C=CC(=O)N1CCC[C@@H](n2nc(C(=O)Nc3nc4ccccc4o3)c3c(N)ncnc32)C1.O=C(O)C(O)C(O)C(=O)O [hemitartrate of Compound A]
1.72
C=CC(=O)N1CCC[C@@H](n2nc(C(=O)Nc3nc4ccccc4o3)c3c(N)ncnc32)C1 [Compound A]
4.11
C=CC(=O)N1CCC[C@@H](n2nc(C(=O)Nc3nc4ccccc4o3)c3c(N)ncnc32)C1.C=CC(=O)N1CCC[C@@H](n2nc(C(=O)Nc3nc4ccccc4o3)c3c(N)ncnc32)C1.O=C(O)/C=C/C(=O)O [hemifumarate of Compound A]
0.54

Note to self: Weight change ratio, Desorption recorded for C=CC(=O)N1CCC[C@@H](n2nc(C(=O)Nc3nc4ccccc4o3)c3c(N)ncnc32)C1.O=P(O)(O)O [monophosphate of Compound A] was 12.12

The reported value for C=CC(=O)N1CCC[C@@H](n2nc(C(=O)Nc3nc4ccccc4o3)c3c(N)ncnc32)C1.O=C(O)/C=C/C(=O)O [monofumarate of Compound A] in terms of Weight change ratio, Desorption is 0.49

----------
Reported Weight change ratio, Desorption is given for each of the following compounds.
Assay notes: Moisture absorption/desorption test
Format: physicochemical
Condition notes: relative humidity 60%, 25° C.
Write it as a number; the unit % goes unstated.

C=CC(=O)N1CCC[C@@H](n2nc(C(=O)Nc3nc4ccccc4o3)c3c(N)ncnc32)C1.C=CC(=O)N1CCC[C@@H](n2nc(C(=O)Nc3nc4ccccc4o3)c3c(N)ncnc32)C1.O=C(O)/C=C/C(=O)O [hemifumarate of Compound A]
0.40
C=CC(=O)N1CCC[C@@H](n2nc(C(=O)Nc3nc4ccccc4o3)c3c(N)ncnc32)C1.O=C(O)/C=C/C(=O)O [monofumarate of Compound A]
0.41
C=CC(=O)N1CCC[C@@H](n2nc(C(=O)Nc3nc4ccccc4o3)c3c(N)ncnc32)C1
3.88
C=CC(=O)N1CCC[C@@H](n2nc(C(=O)Nc3nc4ccccc4o3)c3c(N)ncnc32)C1.O=P(O)(O)O [monophosphate of Compound A]
10.38

Field: next compound
Reported Weight change ratio, Desorption ( C=CC(=O)N1CCC[C@@H](n2nc(C(=O)Nc3nc4ccccc4o3)c3c(N)ncnc32)C1.C=CC(=O)N1CCC[C@@H](n2nc(C(=O)Nc3nc4ccccc4o3)c3c(N)ncnc32)C1.O=C(O)C(O)C(O)C(=O)O [hemitartrate of Compound A] ) = 1.45

----------
Assay notes: Moisture absorption/desorption test
Assay type: physicochemical
Condition notes: relative humidity 40%, 25° C.
Observation type: Weight change ratio, Desorption (%)
Write the number in % without appending the unit.

C=CC(=O)N1CCC[C@@H](n2nc(C(=O)Nc3nc4ccccc4o3)c3c(N)ncnc32)C1
3.65
C=CC(=O)N1CCC[C@@H](n2nc(C(=O)Nc3nc4ccccc4o3)c3c(N)ncnc32)C1.O=P(O)(O)O [monophosphate of Compound A]
9.29
C=CC(=O)N1CCC[C@@H](n2nc(C(=O)Nc3nc4ccccc4o3)c3c(N)ncnc32)C1.C=CC(=O)N1CCC[C@@H](n2nc(C(=O)Nc3nc4ccccc4o3)c3c(N)ncnc32)C1.O=C(O)/C=C/C(=O)O [hemifumarate of Compound A]
0.23

Record summary for C=CC(=O)N1CCC[C@@H](n2nc(C(=O)Nc3nc4ccccc4o3)c3c(N)ncnc32)C1.C=CC(=O)N1CCC[C@@H](n2nc(C(=O)Nc3nc4ccccc4o3)c3c(N)ncnc32)C1.O=C(O)C(O)C(O)C(=O)O [hemitartrate of Compound A] : reported Weight change ratio, Desorption = 1.32

Quick note, Weight change ratio, Desorption for C=CC(=O)N1CCC[C@@H](n2nc(C(=O)Nc3nc4ccccc4o3)c3c(N)ncnc32)C1.O=C(O)/C=C/C(=O)O [monofumarate of Compound A] landed at 0.33

----------
Assay notes: Moisture absorption/desorption test
Format: physicochemical
Condition notes: relative humidity 40%, 25° C.
Recorded Weight change ratio, Adsorption by entry

Known Weight change ratio, Adsorption results, listed for orientation:
C=CC(=O)N1CCC[C@@H](n2nc(C(=O)Nc3nc4ccccc4o3)c3c(N)ncnc32)C1.C=CC(=O)N1CCC[C@@H](n2nc(C(=O)Nc3nc4ccccc4o3)c3c(N)ncnc32)C1.O=C(O)/C=C/C(=O)O [hemifumarate of Compound A]
0.16%
C=CC(=O)N1CCC[C@@H](n2nc(C(=O)Nc3nc4ccccc4o3)c3c(N)ncnc32)C1.O=P(O)(O)O [monophosphate of Compound A]
0.36%
C=CC(=O)N1CCC[C@@H](n2nc(C(=O)Nc3nc4ccccc4o3)c3c(N)ncnc32)C1.C=CC(=O)N1CCC[C@@H](n2nc(C(=O)Nc3nc4ccccc4o3)c3c(N)ncnc32)C1.O=C(O)C(O)C(O)C(=O)O [hemitartrate of Compound A]
1.56%

compound C=CC(=O)N1CCC[C@@H](n2nc(C(=O)Nc3nc4ccccc4o3)c3c(N)ncnc32)C1 [Compound A] , Weight change ratio, Adsorption observed: 3.60%

Query C=CC(=O)N1CCC[C@@H](n2nc(C(=O)Nc3nc4ccccc4o3)c3c(N)ncnc32)C1.O=C(O)/C=C/C(=O)O [monofumarate of Compound A] yields Weight change ratio, Adsorption of 0.30%

----------
Assay notes: Moisture absorption/desorption test
Format: physicochemical
Condition notes: relative humidity 20%, 25° C.
hey, just use met if measured Weight change ratio, Desorption is less than 0.2%, otherwise not met

C=CC(=O)N1CCC[C@@H](n2nc(C(=O)Nc3nc4ccccc4o3)c3c(N)ncnc32)C1.O=C(O)/C=C/C(=O)O [monofumarate of Compound A]
met
C=CC(=O)N1CCC[C@@H](n2nc(C(=O)Nc3nc4ccccc4o3)c3c(N)ncnc32)C1.C=CC(=O)N1CCC[C@@H](n2nc(C(=O)Nc3nc4ccccc4o3)c3c(N)ncnc32)C1.O=C(O)/C=C/C(=O)O [hemifumarate of Compound A]
met
C=CC(=O)N1CCC[C@@H](n2nc(C(=O)Nc3nc4ccccc4o3)c3c(N)ncnc32)C1.O=P(O)(O)O [monophosphate of Compound A]
not met

Data request: Strictly below 0.2%: is that where Weight change ratio, Desorption of C=CC(=O)N1CCC[C@@H](n2nc(C(=O)Nc3nc4ccccc4o3)c3c(N)ncnc32)C1.C=CC(=O)N1CCC[C@@H](n2nc(C(=O)Nc3nc4ccccc4o3)c3c(N)ncnc32)C1.O=C(O)C(O)C(O)C(=O)O [hemitartrate of Compound A] sits?
Data returned: not met

Data request: Given the entry C=CC(=O)N1CCC[C@@H](n2nc(C(=O)Nc3nc4ccccc4o3)c3c(N)ncnc32)C1 , would its reported Weight change ratio, Desorption be below 0.2%?
Data returned: not met

----------
Weight change ratio, Adsorption values, listed per item
Assay notes: Moisture absorption/desorption test
Assay type: physicochemical
Condition notes: relative humidity 5%, 25° C.
Please give a number only; it is taken to be in %.

C=CC(=O)N1CCC[C@@H](n2nc(C(=O)Nc3nc4ccccc4o3)c3c(N)ncnc32)C1.O=C(O)/C=C/C(=O)O [monofumarate of Compound A]
0.01
C=CC(=O)N1CCC[C@@H](n2nc(C(=O)Nc3nc4ccccc4o3)c3c(N)ncnc32)C1.O=P(O)(O)O [monophosphate of Compound A]
0.01
C=CC(=O)N1CCC[C@@H](n2nc(C(=O)Nc3nc4ccccc4o3)c3c(N)ncnc32)C1.C=CC(=O)N1CCC[C@@H](n2nc(C(=O)Nc3nc4ccccc4o3)c3c(N)ncnc32)C1.O=C(O)C(O)C(O)C(=O)O [hemitartrate of Compound A]
0.01
C=CC(=O)N1CCC[C@@H](n2nc(C(=O)Nc3nc4ccccc4o3)c3c(N)ncnc32)C1
0.42

We now examine a further compound.
The reported value for C=CC(=O)N1CCC[C@@H](n2nc(C(=O)Nc3nc4ccccc4o3)c3c(N)ncnc32)C1.C=CC(=O)N1CCC[C@@H](n2nc(C(=O)Nc3nc4ccccc4o3)c3c(N)ncnc32)C1.O=C(O)/C=C/C(=O)O [hemifumarate of Compound A] in terms of Weight change ratio, Adsorption is 0.00
